The entries below come with measured TGI values attached.
# System: MCF7 breast
# measurement.notes: NCI tumour cell line growth inhibition, 48 h
Provide the reading as a plain figure in µM.

Before answering, review these 3 worked examples.
Find the measured TGI of "O=c1c(O)cccc2cc(O)c(O)c(O)c12" and report it. 23.9

Indicate the recorded TGI value for this compound: C=C1C(=O)C[C@@]23CCC[C@@]12CC(OCOC)C3 (some centres undefined) 3.74

Please give the documented TGI of "CCCC(=O)O[C@H]1C=C2C[C@@]34SS[C@]5(CC6=C[C@H](OC(C)=O)[C@@H]7O[C@@H]7[C@H]6N5C3=O)C(=O)N4[C@@H]2[C@H]2O[C@H]21" 0.226

***
Look up and state reported TGI for "CS(=O)(=O)Nc1cccc(-c2cc(-c3ccccc3Cl)c(C#N)c(N)n2)c1" 14.3

// fetch TGI given entry "CC(=O)Oc1cc2c(c3ncccc13)OC(C)(C)C2" 61.8

* * *

# Test system: SNB-19 CNS
# measurement.notes: NCI tumour cell line growth inhibition, 48 h
measured.quantity: TGI

Please give the documented TGI of Nc1nc2cc3ccc(C4CC(O)C(CO)O4)cc3cc2c(=O)[nH]1 (stereo unspecified) > 100 µM

Annotate the molecule C/C=C1/CN2CCC3(O)c4ccccc4N4C=C(C(=O)OC)C1CC2C43O (stereo unspecified) with its measured TGI. > 100 µM

Supply TGI value. Item: COc1cc(C2SC(N)=Nc3c2c(C)nn3C(=O)c2ccccc2O)ccc1O (stereo unspecified) > 10 µM

Name the recorded TGI of the item "[N-]=[N+]=Nc1c(C=O)c(=O)n(-c2ccccc2)c2ccccc12" in your answer. > 100 µM

State, in one line, measured TGI of "O=C(O)CS" > 100 µM

Write down TGI measured for item "O=c1cc(-c2ccccc2)oc2cc(O)cc(O)c12" 88.8 µM

Determine from records and report TGI for "COc1cc(/C=C/c2cc(/C=C/c3ccc(O)c(OC)c3)nc(N)n2)ccc1O" 7.95 µM

Output measured TGI for this item: C=C(C)CC1(O)C(=O)C(OCC)=C1OCC (stereo unspecified) > 100 µM

Please give the documented TGI of O=C(NNC(c1ccccc1)C(F)(F)F)c1ccncc1 (stereo unspecified) > 100 µM

Give me measured TGI, please, for this molecule: "O=C(Nc1cccc(Cc2cccc(NC(=O)c3ccccc3)c2)c1)c1ccccc1" 94.6 µM

More entries:
Give a short answer stating reported TGI for CC(C)CCC[C@@H](C)C1CCC2[C@@H]3CC=C4C[C@@H](C(=O)NCC[N+](C)(C)CCCS(=O)(=O)[O-])CC[C@]4(C)C3CC[C@@]21C (stereo partly specified) . 36.4 µM

Read off the recorded TGI for CCN(CC)c1ccc2c(c1)Oc1nc(N)c(C#N)c(N)c1C2Sc1ccc(OC)cc1 (stereo unspecified) 3.26 µM

Give the reported value of TGI for this record: "CCCCCCCCCc1cc[n+](CC(=O)c2ccc([N+](=O)[O-])cc2)cc1" 1.8 µM

Output TGI of CC(=O)C1C(=O)NC(=O)C1=O (stereo unspecified) > 100 µM

In one line, give reported TGI of the entry "Cc1ccc2c(n1)C(=O)C=CC2=O" . 34 µM

Give the reported TGI for this molecule. COc1ccc(C2Oc3cc(OC)c(O)c(C)c3[C@H]2C)cc1 (stereo partly specified) > 100 µM

// Input: "CC(C)CC(=O)Nc1n[nH]c2c1CN(C(=O)C1CCN(C)CC1)C2(C)C" . Output its TGI only. > 10 µM
